Recorded values, source patent US12263248B2.

Listed compounds paired with reported Lipid Purity
EXPERIMENT SUMMARY: Chemical stability of lipids in ethanol (lipid purity)
Format: physicochemical
TEST CONTEXT: t = 96 h, 37° C.
State the answer as a number, implicitly in %.

{"columns": ["SMILES REPR", "OUTPUT UNIT", "Lipid Purity"],
 "data": [
  ["CCCCCCCCCCCOC(=O)CCCCCN(CCO)CCCCCCCC(=O)OC(CCCCCCCC)CCCCCCCC", "%", 96.13]
]}

Provide one value: measured Lipid Purity of `CCCCCCCCC(CCCCCCCC)OC(=O)CCCCCCCN(CCO)CCCCCCCC(=O)OC(CCCCCCCC)CCCCCCCC`
98.10

Identify measured Lipid Purity corresponding to `CCCCC/C=C\C/C=C\CCCCCCCCN(CCO)CCCCCCCC(=O)OC(CCCCCCCC)CCCCCCCC`
94.29

Retrieve Lipid Purity measured for `CCCCCCCCCOC(=O)CCCCCCCN(CCO)CCCCCCCC(=O)OC(CCCCCCCC)CCCCCCCC` and print it.
95.01

Respond only with Lipid Purity recorded for `CCCCCCCCCOC(=O)CCCCCCCN(CCO)CCCCCCCC(=O)OCCCCCCCCC`
97.82

Look up Lipid Purity of `CCCCCCCCCOC(=O)CCCN(CCO)CCCCCCCC(=O)OC(CCCCCCCC)CCCCCCCC` and report it.
95.72

###

EXPERIMENT SUMMARY: Apparent (surface) pKa of the LNP formulation (TNS assay)
Assay type: physicochemical
TEST CONTEXT: lipid nanoparticle, ±SD within one assay run (Table 37)
PROPERTY LABEL: pKa
Lab note: jot down the number only; don't add units.

Consider the worked cases shown below.
{"columns": ["COMPOUND", "pKa"],
 "data": [
  ["CCCCCCCCCOC(=O)CCCCCCCN(CCCCCCCC(=O)OC(CCCCCCCC)CCCCCCCC)CCN(C)C [Compound 14]", 6.58],
  ["CCCCC/C=C\\C/C=C\\CCCCCCCCN(CCO)CCCCCCCC(=O)OCCCCCCCCC [Compound 136]", 6.95]
]}

For the compound CCCCCCCCCCCOC(=O)CCCCCN(CCO)CCCCCCCC(=O)OC(CCCCCCCC)CCCCCCCC [Compound 25] , give its reported pKa.
6.68

###

EXPERIMENT SUMMARY: Encapsulation efficiency of RNA (QUANT-IT RIBOGREEN RNA assay)
Type: physicochemical
TEST CONTEXT: Table 1A
PROPERTY LABEL: EE (%)
Supply the numeric figure in %, leaving out any unit text.

{"columns": ["COMPOUND", "QUANTITATIVE READOUT"],
 "data": [
  ["CCCCCCCCC(CCCCCCCC)OC(=O)CCCCCCCN(CCO)CCCC(=O)OCC1CC1CCCCCC (centres unmarked)", 97.03]
]}

Recall and state the measured EE (%) for CCCCCCCCC(CCCCCCCC)OC(=O)CCCCCCCN(CCO)CCCCCCCC(=O)OCC1CC1CCCCCC (centres unmarked) .
97.03

Tell me its EE (%) given CCCCCCCCC(C)OC(=O)CCCCCCCN(CCO)CCCCCCCC(=O)OC(CCCCCCCC)CCCCCCCC (centres unmarked) as the entry.
96.55

Please report EE (%) for the following compound: `CCCCCCCCCOC(=O)CCCCCCCN(CCO)CCCCCCCC(=O)N(CCCCCCCC)CCCCCCCC`
90.3

###

Listed here are compounds together with their documented [hEPO].
Test system: hEPO mRNA
EXPERIMENT SUMMARY: hEPO expression after intravenous administration to rats
Type: in vivo, rat
TEST CONTEXT: Table 19B; species, dose and time not given
Quick note: number first, unit second.

Solved entries:
{"columns": ["COMPOUND", "ASSAY SYSTEM", "PROPERTY LABEL", "RESULT"],
 "data": [
  ["CCCCCCCCC(CCCCCCCC)OC(=O)CCCCCCCN(CCO)CCCCCCCCCC(=O)OCCCCCCC", "hEPO mRNA", "[hEPO]", "3.01e+06 pg/mL"],
  ["CCCCCCCCCOC(=O)CCCCCCCN(CCCCCCCC(=O)OC(CCCCCCCC)CCCCCCCC)CCCC(N)=O", "hEPO mRNA", "[hEPO]", "40600 pg/mL"],
  ["CCCCC/C=C\\C/C=C\\CCCCCCCCC(CCCCCCCC/C=C\\C/C=C\\CCCCC)OC(=O)CCCN(C)C [MC3, DLin-MC3-DMA, reference compound]", "hEPO mRNA", "[hEPO]", "14800 pg/mL"],
  ["CCCCCCCCCOC(=O)CCCCCCCN(CCCCCCCC(=O)OC(CCCCCCCC)CCCCCCCC)CCCN/C(=N/[N+](=O)[O-])NC", "hEPO mRNA", "[hEPO]", "1.72e+06 pg/mL"],
  ["CCCCCCCCCOC(=O)CCCCCCCN(CCO)CCCCCCC(C)OC(=O)C(CCCCCCCC)CCCCCCCC (centres unmarked)", "hEPO mRNA", "[hEPO]", "3.56e+06 pg/mL"]
]}

Answer with reported [hEPO] of `CCCCCCCCCOC(=O)CCCCCCCN(CCO)CCCCCCCCCC(=O)OC(CCCCCC)CCCCCC`
5.45e+06 pg/mL

For the compound CCCCCCCCC(CCCCCCCC)OC(=O)CCCCCCCN(CCO)CCCCCCCC(=O)OCC(C)CCCCCCC (centres unmarked) , report [hEPO].
1.05e+07 pg/mL

Respond only with [hEPO] recorded for `CCCCCCCCCOC(=O)CCCCCCCNCCCCCCCC(=O)OC(CCCCCCCC)CCCCCCCC`
3.47e+06 pg/mL

###

EXPERIMENT SUMMARY: Encapsulation efficiency of RNA (QUANT-IT RIBOGREEN RNA assay)
Type: physicochemical
TEST CONTEXT: Table 1A
Excerpt: For nanoparticle compositions including an RNA, a QUANT-IT™ RIBOGREEN® RNA assay (Invitrogen Corporation Carlsbad, CA) can be used to evaluate the encapsulation of an RNA by the nanoparticle composition. […] The fluorescence intensity can be measured using a fluorescence plate reader (Wallac Victor 1420 Multilabel Counter; Perkin Elmer, Waltham, MA) at an excitation wavelength of, for example, about 480 nm and an emission wavelength of, for example, about 520 nm. […]
PROPERTY LABEL: EE (%)
State the answer as a number, implicitly in %.

{"columns": ["COMPOUND", "EE (%)"],
 "data": [
  ["CCCCCCCCC(C)OC(=O)CCCCCCCN(CCO)CCCCCCCOC(=O)C(CCCCCCCC)CCCCCCCC (centres unmarked) [Compound 135]", 90.20]
]}

Give EE (%) for CCCCCCCOC(=O)CCCCCCCCCN(CCO)CCCCCCCCCC(=O)OC(CCCCCC)CCCCCC [Compound 186]
87.2

For the compound CCCCCCCCCOC(=O)CCCCCCCN(CCCCCCCC(=O)OC(CCCCCCCC)CCCCCCCC)CCN1CCOCC1 [Compound 103] , give its measured EE (%) value.
90.77

Report EE (%) for CCCCC/C=C\C/C=C\CCCCCCCCC(CCCCCCCC/C=C\C/C=C\CCCCC)OC(=O)CCCN(C)C [MC3, DLin-MC3-DMA, reference compound]
97.3

Answer with the recorded EE (%) for the compound listed here: CCCCCCCCC(CCC)OC(=O)CCCN(CCO)CCCCCCCC(=O)OC(CCCCCCCC)CCCCCCCC (centres unmarked) [Compound 74]
97

Consider the compound CCCCCCCCC(CC)OC(=O)CCCN(CCO)CCCCCCCC(=O)OC(CCCCCCCC)CCCCCCCC (centres unmarked) [Compound 72] . State its measured EE (%).
94.69

###

EXPERIMENT SUMMARY: Apparent (surface) pKa of the LNP formulation (TNS assay)
Format: physicochemical
TEST CONTEXT: Table 1A
Binned pKa; ranges: L: < 6; M: ≥ 6 and < 7; H: ≥ 7

{"columns": ["COMPOUND", "GROUP LABEL"],
 "data": [
  ["CCCCCCCCCOC(=O)CCCCCCCN(CCO)CCCCCC(=O)OC(CCCCCCCC)CCCCCCCC", "M"],
  ["CCCCCCCCCOC(=O)CCCCCCCN(CCCCCCCC(=O)OC(CCCCCCCC)CCCCCCCC)CC(O)CC (stereo not drawn)", "L"],
  ["CCCCCCCCCOC(=O)CCCCCCCN(CCCCCCCC(=O)OC(CCCCCCCC)CCCCCCCC)CCCN(C)S(C)(=O)=O", "M"],
  ["CCCCCCCCCOC(=O)C(C)CCCCCCN(CCO)CCCCCCCC(=O)OC(CCCCCCCC)CCCCCCCC (stereo not drawn)", "M"]
]}

Hi there! Could you help me figure out the category for `CCCCCCCCC(CCCCCCCC)OC(=O)CCCCCCCN(CCO)CCCCCCCC` please?
M

Please classify: `CCCCCCCCC(CCCCCCCC)OC(=O)CCCCCCCN(CCO)CCCCCCCC(=O)OC(C)(C)C`
M

# bin lookup: classify `CCCCCCCOC(=O)CCCCCCCCCN(CCO)CCCCCCCCCC(=O)OC(CCCCCC)CCCCCC` by its pKa
M

Band assignment needed for `CCCCCCCCCOC(=O)CCCCCCCN(CCCCCCCC(=O)OC(CCCCCCCC)CCCCCCCC)CCCC(F)(F)F` please.
L

The entry to classify is `CCCCCCCCCOC(=O)CCCCCCCN(CCCCCCCC(=O)OC(CCCCCCCC)CCCCCCCC)C(CO)CO` ; which class holds it?
M

Categorize the following entry: `CCCCCCCCCCCCCCCCCCN(CCO)CCCCCCCC(=O)OC(CCCCCCCC)CCCCCCCC`
M

GET /class?item= `CCCC/C=C\CCC(CC/C=C\CCCC)OC(=O)CCCCCCCN(CCO)CCCCCCCC(=O)OCCCCCCCCC`
M

Class (by measured pKa) for `CCCCCCCCCOC(=O)CCCCCCCN(CCO)CCN(CCO)CCCCCCCC(=O)OC(CCCCCCCC)CCCCCCCC`
H

In plain terms, what class is `CCCCCCCCCOC(=O)CCCCCCCN(CCO)CCCCCCCC(=O)OCCCCCCCCC` ?
H
